target system: 11-beta-hydroxysteroid dehydrogenase 1 (Mus musculus)
Sequence (P50172 whole entry): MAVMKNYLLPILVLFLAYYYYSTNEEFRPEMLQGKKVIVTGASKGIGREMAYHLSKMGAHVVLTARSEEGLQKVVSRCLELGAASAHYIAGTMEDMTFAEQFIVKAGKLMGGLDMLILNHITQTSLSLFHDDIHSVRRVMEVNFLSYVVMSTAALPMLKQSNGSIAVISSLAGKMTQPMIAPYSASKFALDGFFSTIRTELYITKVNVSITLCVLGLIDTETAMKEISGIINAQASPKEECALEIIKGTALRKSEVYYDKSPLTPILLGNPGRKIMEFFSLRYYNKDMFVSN
experimental protocol: Inhibition of mouse 11beta-HSD1
pIC50: −log10 of the molar value.
quantity: pIC50

molecule | pIC50
N#Cc1ccc(-c2c(O)nc(SCc3ccccc3Cl)c3c2CCCC3)cc1 | 5.42

I: N#Cc1c(=O)[nH]c(SCc2ccccc2Cl)c2c(F)cccc12
II: N#Cc1c(O)nc(SCc2ccccc2Cl)nc1-c1ccccc1
I'm curious, which of these has a smaller pIC50 number: I or II ? Your answer should be the label attached to the chosen record.
II
(II: 7.24, I: 8.00)

###

Tested on: 11β-HSD1 (Mus musculus)
assay context: Homo sapiens
quantity: pIC50
Remember, pIC50 is on a log scale: it is -log10 of the molar concentration.

What pIC50 appears in the records for this compound with 11β-HSD1 (Mus musculus)? N#Cc1c(O)nc(SCc2ccccc2Cl)nc1-c1ccccc1
7.24
